Test system: Enterococcus sp.
Experiment summary: In vitro antibacterial evaluation: minimum inhibitory concentration (MIC), broth dilution method
Assay type: cell-based
Experimental conditions: broth dilution, inoculum 5×10^5 CFU/mL, 18 hours at 35° C.
Endpoint name: MIC Enterococcus faecalis (GC 4552) (µg/mL)

{"Compound": "CC(c1ccccc1)C1NC(=O)CNC(=O)C(CO)NC(=O)C(C(O)C2CNC(=N)N2C2OC(CO)C(O)C(O)C2O)NC(=O)C(C(O)C2CNC(=N)N2)NC(=O)C(Cc2ccc(OC3OC(CO)C(OC4OC5COC6(CCCCC6(C)C)OC5C(O)C4O)C(O)C3O)cc2)NC1=O (centres unmarked)", "Tested system": "Enterococcus sp.", "Endpoint name": "MIC Enterococcus faecalis (GC 4552)", "Unit abbreviation": "µg/mL", "Value prefix": "=", "Reading": 4}
{"Compound": "CC(c1ccccc1)C1NC(=O)CNC(=O)C(CO)NC(=O)C(C(O)C2CNC(=N)N2C2OC(CO)C(O)C(O)C2O)NC(=O)C(C(O)C2CNC(=N)N2)NC(=O)C(Cc2ccc(OC3OC(CO)C(OC4OC5COC6(CCCCC6C)OC5C(O)C4O)C(O)C3O)cc2)NC1=O (centres unmarked)", "Tested system": "Enterococcus sp.", "Endpoint name": "MIC Enterococcus faecalis (GC 4552)", "Unit abbreviation": "µg/mL", "Value prefix": "=", "Reading": 16}
{"Compound": "CC(c1ccccc1)C1NC(=O)CNC(=O)C(CO)NC(=O)C(C(O)C2CNC(=N)N2C2OC(CO)C(O)C(O)C2O)NC(=O)C(C(O)C2CNC(=N)N2)NC(=O)C(Cc2ccc(OC3OC(CO)C(OC4OC5COC6(OC5C(O)C4O)C4CCCC6CCC4)C(O)C3O)cc2)NC1=O (centres unmarked)", "Tested system": "Enterococcus sp.", "Endpoint name": "MIC Enterococcus faecalis (GC 4552)", "Unit abbreviation": "µg/mL", "Value prefix": "=", "Reading": 8}
{"Compound": "CC(c1ccccc1)C1NC(=O)CNC(=O)C(CO)NC(=O)C(C(O)C2CNC(=N)N2C2OC(CO)C(O)C(O)C2O)NC(=O)C(C(O)C2CNC(=N)N2)NC(=O)C(Cc2ccc(OC3OC(CO)C(OC4OC5COC(c6cccc(Oc7ccccc7)c6)OC5C(O)C4O)C(O)C3O)cc2)NC1=O (centres unmarked)", "Tested system": "Enterococcus sp.", "Endpoint name": "MIC Enterococcus faecalis (GC 4552)", "Unit abbreviation": "µg/mL", "Value prefix": "=", "Reading": 4}
{"Compound": "CC(c1ccccc1)C1NC(=O)CNC(=O)C(CO)NC(=O)C(C(O)C2CNC(=N)N2C2OC(CO)C(O)C(O)C2O)NC(=O)C(C(O)C2CNC(=N)N2)NC(=O)C(Cc2ccc(OC3OC(CO)C(OC4OC5COC(c6ccc(S(C)(=O)=O)cc6)OC5C(O)C4O)C(O)C3O)cc2)NC1=O (centres unmarked)", "Tested system": "Enterococcus sp.", "Endpoint name": "MIC Enterococcus faecalis (GC 4552)", "Unit abbreviation": "µg/mL", "Value prefix": ">", "Reading": 64}
{"Compound": "CC(c1ccccc1)C1NC(=O)CNC(=O)C(CO)NC(=O)C(C(O)C2CNC(=N)N2C2OC(CO)C(O)C(O)C2O)NC(=O)C(C(O)C2CNC(=N)N2)NC(=O)C(Cc2ccc(OC3OC(CO)C(OC4OC(CO)C(O)C(OCc5ccc(OCc6ccccc6)cc5)C4O)C(O)C3O)cc2)NC1=O (centres unmarked) [Example 231c]", "Tested system": "Enterococcus sp.", "Endpoint name": "MIC Enterococcus faecalis (GC 4552)", "Unit abbreviation": "µg/mL", "Value prefix": "=", "Reading": 4}
{"Compound": "CC(c1ccccc1)C1NC(=O)CNC(=O)C(CO)NC(=O)C(C(O)C2CNC(=N)N2C2OC(CO)C(O)C(O)C2O)NC(=O)C(C(O)C2CNC(=N)N2)NC(=O)C(Cc2ccc(OC3OC(CO)C(OC4OC(COCc5ccc(OCc6ccccc6)cc5)C(O)C(O)C4O)C(O)C3O)cc2)NC1=O (centres unmarked)", "Tested system": "Enterococcus sp.", "Endpoint name": "MIC Enterococcus faecalis (GC 4552)", "Unit abbreviation": "µg/mL", "Value prefix": "=", "Reading": 4}
{"Compound": "CC(C1CCCCC1)C1NC(=O)CNC(=O)C(CO)NC(=O)C(C(O)C2CNC(=N)N2C2OC(CO)C(O)C(O)C2O)NC(=O)C(C(O)C2CNC(=N)N2)NC(=O)C(Cc2ccc(OC3OC(CO)C(OC4OC5COC(c6ccccc6)OC5C(O)C4O)C(O)C3O)cc2)NC1=O (centres unmarked)", "Tested system": "Enterococcus sp.", "Endpoint name": "MIC Enterococcus faecalis (GC 4552)", "Unit abbreviation": "µg/mL", "Value prefix": "=", "Reading": 1}
{"Compound": "CSc1ccc(C2OCC3OC(OC4C(CO)OC(Oc5ccc(CC6NC(=O)C(C(C)c7ccccc7)NC(=O)CNC(=O)C(CO)NC(=O)C(C(O)C7CNC(=N)N7C7OC(CO)C(O)C(O)C7O)NC(=O)C(C(O)C7CNC(=N)N7)NC6=O)cc5)C(O)C4O)C(O)C(O)C3O2)cc1[N+](=O)[O-] (centres unmarked)", "Tested system": "Enterococcus sp.", "Endpoint name": "MIC Enterococcus faecalis (GC 4552)", "Unit abbreviation": "µg/mL", "Value prefix": "=", "Reading": 2}
{"Compound": "COc1ccc(Oc2cccc(C3OCC4OC(OC5C(CO)OC(Oc6ccc(CC7NC(=O)C(C(C)c8ccccc8)NC(=O)CNC(=O)C(CO)NC(=O)C(C(O)C8CNC(=N)N8C8OC(CO)C(O)C(O)C8O)NC(=O)C(C(O)C8CNC(=N)N8)NC7=O)cc6)C(O)C5O)C(O)C(O)C4O3)c2)cc1 (centres unmarked)", "Tested system": "Enterococcus sp.", "Endpoint name": "MIC Enterococcus faecalis (GC 4552)", "Unit abbreviation": "µg/mL", "Value prefix": "=", "Reading": 2}
{"Compound": "CC(c1ccccc1)C1NC(=O)CNC(=O)C(CO)NC(=O)C(C(O)C2CNC(=N)N2C2OC(CO)C(O)C(O)C2O)NC(=O)C(C(O)C2CNC(=N)N2)NC(=O)C(Cc2ccc(OC3OC(CO)C(OC4OC5COC6(CC(C)(C)CC(C)(C)C6)OC5C(O)C4O)C(O)C3O)cc2)NC1=O (centres unmarked)", "Tested system": "Enterococcus sp.", "Endpoint name": "MIC Enterococcus faecalis (GC 4552)", "Unit abbreviation": "µg/mL", "Value prefix": "=", "Reading": 4}
{"Compound": "CC(C)=CCOc1cccc(C2OCC3OC(OC4C(CO)OC(Oc5ccc(CC6NC(=O)C(C(C)c7ccccc7)NC(=O)CNC(=O)C(CO)NC(=O)C(C(O)C7CNC(=N)N7C7OC(CO)C(O)C(O)C7O)NC(=O)C(C(O)C7CNC(=N)N7)NC6=O)cc5)C(O)C4O)C(O)C(O)C3O2)c1 (centres unmarked)", "Tested system": "Enterococcus sp.", "Endpoint name": "MIC Enterococcus faecalis (GC 4552)", "Unit abbreviation": "µg/mL", "Value prefix": "=", "Reading": 16}
{"Compound": "CC(=O)n1cc(C2OCC3OC(OC4C(CO)OC(Oc5ccc(CC6NC(=O)C(C(C)c7ccccc7)NC(=O)CNC(=O)C(CO)NC(=O)C(C(O)C7CNC(=N)N7C7OC(CO)C(O)C(O)C7O)NC(=O)C(C(O)C7CNC(=N)N7)NC6=O)cc5)C(O)C4O)C(O)C(O)C3O2)c2ccccc21 (centres unmarked)", "Tested system": "Enterococcus sp.", "Endpoint name": "MIC Enterococcus faecalis (GC 4552)", "Unit abbreviation": "µg/mL", "Value prefix": "=", "Reading": 16}
